# credit: a melting point compilation (Tetko et al.)

- ASSAY CONDITIONS: a range is the spread between reports
READOUT TYPE: melting point

{"STRUCTURE NOTATION": "C=CCC1(C(C)C)C(=O)NC(=O)NC1=O", "RESULT": "141 to 143 °C"}
{"STRUCTURE NOTATION": "O=c1cc(-c2ccccc2)oc2c1ccc1ccccc12", "RESULT": "153 to 158 °C"}
{"STRUCTURE NOTATION": "CCOC(=O)c1ccc(O)cc1", "RESULT": "116 to 117 °C"}
{"STRUCTURE NOTATION": "c1ccc(-c2nc(-c3ccccc3)c(-c3ccccc3)[nH]2)cc1", "RESULT": "275 to 276 °C"}
{"STRUCTURE NOTATION": "OCCCl", "RESULT": "-67.5 to -63 °C"}
{"STRUCTURE NOTATION": "Cc1ccc(CN)cc1", "RESULT": "12 to 12.5 °C"}
{"STRUCTURE NOTATION": "Nc1ccncc1", "RESULT": "158 to 159 °C"}
{"STRUCTURE NOTATION": "CC(C)C1CCCC1", "RESULT": "-111 °C"}
{"STRUCTURE NOTATION": "Cc1cc([N+](=O)[O-])ccc1Cl", "RESULT": "42.5 to 43 °C"}
{"STRUCTURE NOTATION": "NC(=O)c1cccnc1", "RESULT": "130 °C"}
{"STRUCTURE NOTATION": "Oc1ccc(N=Nc2ccccc2)cc1", "RESULT": "154 to 155 °C"}
{"STRUCTURE NOTATION": "Oc1ccc2c(c1)CCC2", "RESULT": "53 to 58 °C"}
{"STRUCTURE NOTATION": "COc1ccccc1C=O", "RESULT": "37 to 38 °C"}
{"STRUCTURE NOTATION": "CS", "RESULT": "-123 to -121 °C"}
{"STRUCTURE NOTATION": "O=C(O)Cc1ccc(Br)cc1", "RESULT": "116 to 117 °C"}
{"STRUCTURE NOTATION": "CN1C(=O)CCC1=O", "RESULT": "66 to 71 °C"}
